These data points were gathered from patent US10689367B2.

Consider the following compounds; for each one, report its EC50.
system under test: human APJ receptor (Homo sapiens (Human), UniProt P35414)
Sequence (P35414 whole entry): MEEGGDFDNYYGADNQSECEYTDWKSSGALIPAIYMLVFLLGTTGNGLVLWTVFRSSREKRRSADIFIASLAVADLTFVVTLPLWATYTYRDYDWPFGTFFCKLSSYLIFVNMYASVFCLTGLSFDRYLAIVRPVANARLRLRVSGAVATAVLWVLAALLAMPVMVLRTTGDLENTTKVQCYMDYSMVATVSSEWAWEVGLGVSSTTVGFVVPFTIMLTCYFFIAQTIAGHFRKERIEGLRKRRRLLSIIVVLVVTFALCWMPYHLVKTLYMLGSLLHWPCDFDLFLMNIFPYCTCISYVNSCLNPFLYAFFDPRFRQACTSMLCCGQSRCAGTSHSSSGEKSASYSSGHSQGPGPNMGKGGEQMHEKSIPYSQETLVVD
experiment notes: [35S]GTPγS binding assay on membranes from CHO cells stably expressing human APJ receptor
assay context: membranes of CHO cells stably expressing human APJ receptor, read-out: Activity hAPJ SPA EC50 IP
Please append the unit to your numeric answer.

Item under review: "CO[C@H](c1ncc(Cl)cn1)[C@H](C)S(=O)(=O)Nc1nnc(-c2ccccn2)n1C1(C2CC2)CC1" . Reported EC50?
5.9 nM

Item under review: CC[C@H]([C@@H]1CCCCO1)n1c(NS(=O)(=O)[C@@H](C)[C@H](OC)c2ncc(Cl)cn2)nnc1-c1cccc(OC)n1 (single isomer, unassigned) [Example 325.0] . Reported EC50?
0.33 nM

Item under review: COc1cccc(-c2nnc(NS(=O)(=O)[C@@H](C)[C@H](OC)c3ncc(Cl)cn3)n2[C@H](C)c2cc(F)cc(F)c2)n1 (single isomer, unassigned) [Example 340.0] . Reported EC50?
0.18 nM

Item under review: CC[C@H]([C@@H]1CCCCO1)n1c(NS(=O)(=O)[C@@H](C)[C@H](OC)c2ncc(C)cn2)nnc1-c1cncc(C)c1 (single isomer, unassigned) [Example 335.0] . Reported EC50?
14 nM

Item under review: COc1cccc(-c2nnc(NS(=O)(=O)[C@@H](C)[C@H](OC)c3ncc(Cl)cn3)n2C[C@H]2CCCO2)n1 (single isomer, unassigned) [Example 280.0] . Reported EC50?
21 nM

Item under review: "COCC1(n2c(NS(=O)(=O)[C@@H](C)[C@H](OC)c3ncc(Cl)cn3)nnc2-c2ccccn2)CC1" . Reported EC50?
0.89 nM
